Kindly supply the reported IC50 values for the records listed here.
MEASURED_TARGET: fungal (fACC2) (UniProt Q00955)
Sequence (Q00955 whole entry): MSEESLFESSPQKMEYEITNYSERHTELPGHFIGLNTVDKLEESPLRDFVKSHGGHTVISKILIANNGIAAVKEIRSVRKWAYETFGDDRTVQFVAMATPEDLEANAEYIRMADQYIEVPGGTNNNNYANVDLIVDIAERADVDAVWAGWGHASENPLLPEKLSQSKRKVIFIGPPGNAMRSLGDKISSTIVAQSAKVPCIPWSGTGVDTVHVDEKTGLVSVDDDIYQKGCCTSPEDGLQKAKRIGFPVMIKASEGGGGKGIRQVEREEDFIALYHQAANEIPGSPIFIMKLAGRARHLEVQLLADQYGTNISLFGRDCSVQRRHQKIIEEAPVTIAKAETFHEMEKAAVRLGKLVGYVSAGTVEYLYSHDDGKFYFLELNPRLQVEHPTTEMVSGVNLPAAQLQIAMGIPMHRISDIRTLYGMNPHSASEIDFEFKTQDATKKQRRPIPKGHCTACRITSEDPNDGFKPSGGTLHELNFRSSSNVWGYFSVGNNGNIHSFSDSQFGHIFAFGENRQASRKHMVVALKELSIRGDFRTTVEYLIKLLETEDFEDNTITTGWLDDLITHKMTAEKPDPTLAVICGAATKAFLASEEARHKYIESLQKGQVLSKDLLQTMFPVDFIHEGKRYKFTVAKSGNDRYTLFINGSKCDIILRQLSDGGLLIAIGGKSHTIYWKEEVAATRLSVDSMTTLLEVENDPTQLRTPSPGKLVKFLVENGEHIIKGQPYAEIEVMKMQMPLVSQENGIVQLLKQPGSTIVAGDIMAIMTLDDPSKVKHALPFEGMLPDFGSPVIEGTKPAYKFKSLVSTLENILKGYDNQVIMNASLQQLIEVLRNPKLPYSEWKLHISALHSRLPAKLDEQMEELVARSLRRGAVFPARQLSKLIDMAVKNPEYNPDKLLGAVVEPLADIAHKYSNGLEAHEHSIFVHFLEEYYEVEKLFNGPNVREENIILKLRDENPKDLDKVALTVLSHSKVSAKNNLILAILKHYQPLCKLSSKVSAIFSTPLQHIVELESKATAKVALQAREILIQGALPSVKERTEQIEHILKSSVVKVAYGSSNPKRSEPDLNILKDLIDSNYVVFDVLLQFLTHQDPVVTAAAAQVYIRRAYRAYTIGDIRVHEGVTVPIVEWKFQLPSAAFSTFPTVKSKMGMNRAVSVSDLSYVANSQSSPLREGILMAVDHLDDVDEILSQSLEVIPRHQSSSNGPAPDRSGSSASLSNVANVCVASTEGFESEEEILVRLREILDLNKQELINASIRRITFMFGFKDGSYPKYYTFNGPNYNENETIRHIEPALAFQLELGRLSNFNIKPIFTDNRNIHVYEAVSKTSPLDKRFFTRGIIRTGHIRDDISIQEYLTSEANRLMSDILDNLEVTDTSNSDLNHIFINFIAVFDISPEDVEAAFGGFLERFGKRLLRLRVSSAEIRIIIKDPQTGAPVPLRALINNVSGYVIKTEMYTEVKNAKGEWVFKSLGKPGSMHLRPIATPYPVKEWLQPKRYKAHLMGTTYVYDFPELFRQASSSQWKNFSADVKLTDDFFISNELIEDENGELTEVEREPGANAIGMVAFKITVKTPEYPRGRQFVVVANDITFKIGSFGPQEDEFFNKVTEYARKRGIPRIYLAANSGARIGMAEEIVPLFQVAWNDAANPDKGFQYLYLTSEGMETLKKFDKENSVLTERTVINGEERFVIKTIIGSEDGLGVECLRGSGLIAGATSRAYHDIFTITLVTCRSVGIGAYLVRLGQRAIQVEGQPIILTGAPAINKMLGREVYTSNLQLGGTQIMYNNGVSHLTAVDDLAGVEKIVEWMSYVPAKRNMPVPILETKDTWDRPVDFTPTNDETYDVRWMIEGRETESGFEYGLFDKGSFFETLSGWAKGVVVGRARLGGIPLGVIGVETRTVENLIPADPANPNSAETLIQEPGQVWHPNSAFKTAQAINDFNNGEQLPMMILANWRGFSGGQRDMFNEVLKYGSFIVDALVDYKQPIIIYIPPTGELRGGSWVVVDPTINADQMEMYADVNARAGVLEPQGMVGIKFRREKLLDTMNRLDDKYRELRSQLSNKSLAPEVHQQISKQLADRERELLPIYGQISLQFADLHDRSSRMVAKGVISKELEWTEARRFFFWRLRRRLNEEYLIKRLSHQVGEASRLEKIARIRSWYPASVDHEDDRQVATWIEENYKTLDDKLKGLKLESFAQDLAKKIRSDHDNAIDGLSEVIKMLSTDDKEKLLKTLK
REPORTED_CONDITIONS: read-out: fACC2 (in vitro ACC2 Inhibition Assay, IC50); Table 2b, additional results; ADP-Glo, 5 nM ACC2, 20 μM ATP, 20 μM acetyl-CoA

Sample answers from the record:
COc1ccc(F)cc1[C@H](Cn1c(=O)n(C(C)(C)C(=O)NC(C)C)c(=O)c2c(C)c(-n3nccn3)sc21)OCCC(C)(C)O | 1 to 5 nM
COc1ccc(F)cc1[C@H](Cn1c(=O)n(C(C)(C)C(=O)NC(C)C)c(=O)c2c(C)c(-n3nccn3)sc21)O[C@H]1C[C@@H](OCc2ccccc2)C1 | 1 to 5 nM
COCCO[C@@H](Cn1c(=O)n([C@H](C)C(=O)NC(C)C)c(=O)c2c(C)c(-n3nccn3)sc21)c1cc(F)ccc1OC | 1 to 5 nM
COc1ccc(F)cc1[C@H](Cn1c(=O)n(C(C)(C)C(=O)NC(C)C)c(=O)c2c(C)c(-n3nccn3)sc21)O[C@H]1CC[C@@H](C#N)CC1 | 1 to 5 nM
C=CCO[C@@H](Cn1c(=O)n(C(C)(C)C(=O)NC(C)C)c(=O)c2c(C)c(-n3nccn3)sc21)c1cc(F)ccc1OC | 1 to 5 nM

Dear colleague, could you please provide IC50 for the molecules listed below?
1. COc1ccc(F)cc1[C@H](Cn1c(=O)n(C(C)(C)C(=O)N2CCCCC2)c(=O)c2c(C)c(-n3nccn3)sc21)OC1CCC(=O)CC1
2. COCCCO[C@@H](Cn1c(=O)n(C(C)(C)C(=O)N2CCCC2)c(=O)c2c(C)c(-n3nccn3)sc21)c1cc(F)ccc1OC
3. COCCO[C@@H](Cn1c(=O)n(C(C)(C)C(=O)NC(C)C)c(=O)c2c(C)c(-n3nccn3)sc21)c1ccccc1OC
4. COc1ccc(F)cc1[C@H](Cn1c(=O)n(C(C)(C)C(=O)O)c(=O)c2c(C)c(-n3nccn3)sc21)OC[C@H](C)C#N
5. COc1ccc(F)cc1[C@H](Cn1c(=O)n([C@H](C)C(=O)N2CCCC2)c(=O)c2c(C)c(-n3nccn3)sc21)OCC(C)(C)O
6. CCc1ccc(F)cc1[C@@H](Cn1c(=O)n(C(C)(C)C(=O)NC(C)C)c(=O)c2c(C)c(-n3nccn3)sc21)OC[C@@H](C)C#N
7. COc1ccc(F)cc1[C@@](C)(Cn1c(=O)n(C(C)(C)C(=O)NC(C)C)c(=O)c2c(C)c(-n3nccn3)sc21)OCCC#N

Outgoing:
1: 1 to 5 nM; 2: 1 to 5 nM; 3: 1 to 5 nM; 4: 1 to 5 nM; 5: 0.3 to 1 nM; 6: 1 to 5 nM; 7: 0.3 to 1 nM

* * *

MEASURED_TARGET: fungal (fACC2) (UniProt Q00955)
REPORTED_CONDITIONS: read-out: fACC2 (in vitro ACC2 Inhibition Assay, IC50); Table 2b, additional results; ADP-Glo, 5 nM ACC2, 20 μM ATP, 20 μM acetyl-CoA
ENDPOINT: IC50

COc1ccc(F)cc1[C@H](Cn1c(=O)n(C(C)(C)C(=O)NC(C)C)c(=O)c2c(C)c(-n3nccn3)sc21)O[C@H]1CC[C@@H](O)CC1 | 0.3 to 1 nM
COc1ccc(F)cc1[C@H](Cn1c(=O)n(C(C)(C)C(=O)NC(C)C)c(=O)c2c(C)c(-n3nccn3)sc21)OCCC(=O)O | 0.3 to 1 nM

# batch: return IC50 for each of the 4 compounds below
1. COc1ccc(F)cc1[C@@H](Cn1c(=O)n(C(C)(C)C(=O)NC(C)C)c(=O)c2c(C)c(-n3nccn3)sc21)OC(C)=O
2. COc1ccc(F)cc1[C@H](Cn1c(=O)n(C(C)(C)C(=O)NC(C)(C)C)c(=O)c2c(C)c(-n3nccn3)sc21)OCCCO
3. Cc1c(-n2nccn2)sc2c1c(=O)n(C(C)(C)C(=O)N1CCCC1)c(=O)n2C[C@H](OC1CCOCC1)c1cc(F)ccc1OCC1COC1
4. COc1ccc(F)cc1[C@H](Cn1c(=O)n(C(C)(C)C(=O)NC(C)C)c(=O)c2c(C)c(-n3nccn3)sc21)OCCN1CC(C#N)C1

Outgoing:
1. 1 to 5 nM
2. 1 to 5 nM
3. 1 to 5 nM
4. 1 to 5 nM
